- tgt: PI3K alfa (Homo sapiens)
- Construct: His tag (C); made in house; host or cells: baculovirus BV1075; Tn5 (Trichoplusia ni) or TiniPro insect cells
- procedure.text: PI3K alpha kinase assay (Kinase-Glo luminescence)
- Type: biochemical
- experimental.setup: read-out: EPK_PI3Kalfa/IC50
experimental.readout: IC50 (nM)
One number for each entry, in nM.

// solved cases for IC50 follow
COc1cc(-c2ccc3ncc4c(c3c2)n(-c2cccnc2C)c(=O)n4C)cnc1C(OC)OC    80
Cc1nc(N(C)C)ccc1-n1c(=O)n(C)c2cnc3ccc(-c4cncc(N)c4)cc3c21    65

Batch request: IC50 for each of the following molecules.
1. COc1nc(N2CCNCC2)ccc1-n1c(=O)n(C)c2cnc3ccc(-c4cnc(N(C)C)nc4)cc3c21
2. COc1ncc(-c2ccc3ncc4c(c3c2)n(-c2ccc(N3CC(O)C3)nc2C)c(=O)n4C)c(OC)n1
3. CCNc1cc(-c2ccc3ncc4c(c3c2)n(-c2ccc(OC)nc2Cl)c(=O)n4C)cnc1C
4. CNc1ncc(-c2ccc3ncc4c(c3c2)n(-c2ccc(C(C)(C)O)nc2C)c(=O)n4C)cn1
5. COc1ccc(-n2c(=O)n(C)c3cnc4ccc(-c5ccc6nccn6c5)cc4c32)c(OC)n1

Result:
1: 15; 2: 23; 3: 40; 4: 26; 5: 80

* * *

- procedure.text: Parallel Artificial Membrane Permeability Assay (PAMPA) at pH 6.8
- Type: physicochemical
Kindly supply the reported HT-perm/logPe pH6.8 values for the records listed here.
Give bare numbers.

Record excerpt, results attached:
COc1ccc(-c2ccc3ncc4c(c3c2)n(-c2cccnc2C)c(=O)n4C)cc1OC    −3.3
COc1ccc(-c2ccc3ncc4c(c3c2)n(-c2cccnc2OC)c(=O)n4C)cn1    −3.6
COc1ncccc1-n1c(=O)n(C)c2cnc3ccc(-c4cnc(N)c(C(F)(F)F)c4)cc3c21    −3.8

Query: Returns the measured HT-perm/logPe pH6.8 for the input compound. Input: "COc1ccc(-c2ccc3ncc4c(c3c2)n(-c2cnccc2C)c(=O)n4C)cn1"
Result: −3.7

* * *

- Tested on: PKB Ser473 phosphorylation in Rat1-myr-HA-p110 beta cells
- procedure.text: Reverse protein array, PKB Ser473 phosphorylation in Rat1-myr-HA-p110 beta cells
- Format: cell-based
- experimental.setup: Rattus norvegicus, 0.5 h, 30 minutes compound incubation, read-out: p-PKB/IC50_beta
pIC50: −log10 of the molar value.
Values of pIC50 greater than or equal to 8 map to YES; values below map to NO.

As a guide, the following entries are already answered.
CNc1ncc(-c2ccc3ncc4c(c3c2)n(-c2ccc(C(C)(C)O)nc2C)c(=O)n4C)cc1F    NO
COCc1ncc(-c2ccc3ncc4c(c3c2)n(-c2ccc(F)nc2C)c(=O)n4C)cc1OC    NO
CNc1ncc(-c2ccc3ncc4c(c3c2)n(-c2ccc(C)nc2C)c(=O)n4C)cn1    NO
CCOc1cc(-c2ccc3ncc4c(c3c2)n(-c2ccc(N3CCCC3)nc2C)c(=O)n4C)cnc1COC    NO
COCCOc1ccc(-n2c(=O)n(C)c3cnc4ccc(-c5cnc(N)c(C(F)(F)F)c5)cc4c32)c(C)n1    YES

As a next step, examine the compound that follows.
Query: Is pIC50 at least 8? Consider "COCCN(C)c1ccc(-n2c(=O)n(C)c3cnc4ccc(-c5cncc(N)c5)cc4c32)c(C)n1"
Result: NO

* * *

- System: PKB Ser473 phosphorylation in Rat1-myr-HA-p110 beta cells
- procedure.text: Reverse protein array, PKB Ser473 phosphorylation in Rat1-myr-HA-p110 beta cells
- Format: cell-based
- experimental.setup: Rattus norvegicus, 0.5 h, 30 minutes compound incubation, read-out: p-PKB/IC50_beta
experimental.readout: IC50 (nM)
Numbers only, in nM.

Some solved entries appear below for comparison.
Cc1nc(N2CCC(O)C2)ccc1-n1c(=O)n(C)c2cnc3ccc(-c4cncc(OC(C)C)c4)cc3c21 (stereo not shown)    85.7
CNc1ccc(-c2ccc3ncc4c(c3c2)n(-c2ccc(N3CCCC3)nc2C)c(=O)n4C)cn1    10.7
CCOCc1cc(-c2ccc3ncc4c(c3c2)n(-c2ccc(F)nc2C)c(=O)n4C)cnc1N    50.6
CCOc1cc(-c2ccc3ncc4c(c3c2)n(-c2ccc(OCCOC)nc2C)c(=O)n4C)cnc1COC    66.7
CCOc1ccc(-c2ccc3ncc4c(c3c2)n(-c2cccnc2C)c(=O)n4C)cn1    18.3
COc1ncccc1-n1c(=O)n(C)c2cnc3ccc(-c4cnc(N)c(C(F)(F)F)c4)cc3c21    13.9
CNc1ccc(-c2ccc3ncc4c(c3c2)n(-c2ccc(N3CCC3)nc2C)c(=O)n4C)cn1    6.8
COCc1ncc(-c2ccc3ncc4c(c3c2)n(-c2cccnc2C)c(=O)n4C)cc1OC    139

Kindly give each listed record's IC50.
1. COc1ccc(-n2c(=O)n(C)c3cnc4ccc(-c5cnc(CO)c(OC)c5)cc4c32)c(C)n1
2. CCOc1ccc(-c2ccc3ncc4c(c3c2)n(-c2ccc(NC(=O)COC)nc2C)c(=O)n4C)cn1
3. CNc1ncc(-c2ccc3ncc4c(c3c2)n(-c2ccc(N3CC(O)C3)nc2C)c(=O)n4C)cc1F
4. CCOc1ccc(-c2ccc3ncc4c(c3c2)n(-c2ccc(C)nc2C)c(=O)n4C)cn1
5. Cc1ncccc1-n1c(=O)n(C)c2cnc3ccc(-c4cnc5[nH]ccc5c4)cc3c21
6. COc1ccc(-c2ccc3ncc4c(c3c2)n(-c2cccnc2C)c(=O)n4C)cn1
7. Cc1nc(F)ccc1-n1c(=O)n(C)c2cnc3ccc(-c4cncc(N5CCC5)c4)cc3c21
8. CCOc1ccc(-c2ccc3ncc4c(c3c2)n(-c2ccc(OCCOC)nc2C)c(=O)n4C)cn1

Result:
1: 31.1; 2: 210; 3: 31.9; 4: 21.7; 5: 9.49; 6: 19.8; 7: 22.8; 8: 15.7

* * *

- tgt: PI3K alfa (Homo sapiens, UniProt P42336)
- Construct: His tag (C); made in house; host or cells: baculovirus BV1075; Tn5 (Trichoplusia ni) or TiniPro insect cells
- Sequence (P42336 with tags, fused parts or gaps limits assumed): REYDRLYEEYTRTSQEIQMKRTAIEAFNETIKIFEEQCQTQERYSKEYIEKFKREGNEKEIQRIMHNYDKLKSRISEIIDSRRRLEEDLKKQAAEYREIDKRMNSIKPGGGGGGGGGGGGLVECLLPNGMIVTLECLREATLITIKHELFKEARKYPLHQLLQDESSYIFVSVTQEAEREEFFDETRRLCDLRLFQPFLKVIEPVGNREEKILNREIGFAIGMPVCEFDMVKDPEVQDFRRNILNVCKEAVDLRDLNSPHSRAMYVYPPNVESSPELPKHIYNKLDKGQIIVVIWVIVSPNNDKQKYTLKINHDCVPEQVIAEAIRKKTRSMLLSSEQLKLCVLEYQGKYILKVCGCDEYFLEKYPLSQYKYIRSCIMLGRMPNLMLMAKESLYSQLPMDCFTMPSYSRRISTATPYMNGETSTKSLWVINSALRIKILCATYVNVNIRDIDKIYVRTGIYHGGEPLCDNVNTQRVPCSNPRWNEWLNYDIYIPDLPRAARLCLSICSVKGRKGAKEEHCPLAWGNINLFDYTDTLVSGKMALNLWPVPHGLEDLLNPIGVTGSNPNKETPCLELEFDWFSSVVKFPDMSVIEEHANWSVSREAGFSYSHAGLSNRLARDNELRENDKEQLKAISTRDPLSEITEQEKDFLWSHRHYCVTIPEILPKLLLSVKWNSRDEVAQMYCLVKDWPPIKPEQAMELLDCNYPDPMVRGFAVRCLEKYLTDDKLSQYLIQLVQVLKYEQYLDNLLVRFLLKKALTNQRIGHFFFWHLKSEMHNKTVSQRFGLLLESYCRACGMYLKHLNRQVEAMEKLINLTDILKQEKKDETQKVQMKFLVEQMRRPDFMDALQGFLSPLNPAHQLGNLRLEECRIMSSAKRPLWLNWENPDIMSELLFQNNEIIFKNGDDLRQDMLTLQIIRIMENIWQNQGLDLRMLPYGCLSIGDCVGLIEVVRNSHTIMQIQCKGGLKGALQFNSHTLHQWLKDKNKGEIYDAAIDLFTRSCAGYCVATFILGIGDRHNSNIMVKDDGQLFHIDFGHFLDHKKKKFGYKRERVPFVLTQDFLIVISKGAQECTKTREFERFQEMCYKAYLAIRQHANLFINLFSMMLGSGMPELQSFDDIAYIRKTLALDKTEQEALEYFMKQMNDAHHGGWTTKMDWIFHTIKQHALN
- procedure.text: PI3K alpha kinase assay (Kinase-Glo luminescence)
- Type: biochemical
- experimental.setup: read-out: EPK_PI3Kalfa/IC50
Categorize each record by its IC50 using Low = under 20 nM, Mid = from 20 nM up to 60 nM, High = 60 nM and over

Examples from the recorded data:
COc1cc(-c2ccc3ncc4c(c3c2)n(-c2ccc(N3CC[C@H](O)C3)nc2C)c(=O)n4C)cnc1CO    Mid
CCNc1ncc(-c2ccc3ncc4c(c3c2)n(-c2ccc(N3CC[C@@H](O)C3)nc2C)c(=O)n4C)cc1COCC    High
CNC(=O)c1cc(-c2ccc3ncc4c(c3c2)n(-c2ccc(F)nc2C)c(=O)n4C)cnc1N    Low
CNc1ncc(-c2ccc3ncc4c(c3c2)n(-c2ccc(N3CC[C@H](O)C3)nc2C)c(=O)n4C)cc1Cl    Low
CCOc1cc(-c2ccc3ncc4c(c3c2)n(-c2ccc(N3CCCC3)nc2C)c(=O)n4C)cnc1COC    High

Query: State the class of the compound shown: "CCOc1ccc(-c2ccc3ncc4c(c3c2)n(-c2ccc(N(C)CCOC)nc2C)c(=O)n4C)cn1"
Result: High

Query: Hi, small favor: classify "COc1cc(-c2ccc3ncc4c(c3c2)n(-c2ccc(N3CCCC3)nc2C)c(=O)n4C)cnc1CO" by its IC50 when you get a moment.
Result: Mid

Query: Given "CCNc1cc(-c2ccc3ncc4c(c3c2)n(-c2cnc(F)cc2C)c(=O)n4C)cnc1C" , name the class its IC50 places it in.
Result: Mid

Query: Any idea which band "COCCOc1cc(-c2ccc3ncc4c(c3c2)n(-c2ccc(OC)nc2OC)c(=O)n4C)cnc1C" is in?
Result: Low

Query: Class (by measured IC50) for "COCC(=O)Nc1ccc(-n2c(=O)n(C)c3cnc4ccc(-c5cncc(OC(C)C)c5)cc4c32)c(C)n1"
Result: Mid

* * *

I'd be grateful if you could share measured IC50 for these entries.
- tgt: mTOR (Homo sapiens, UniProt P42345)
- Construct: purchased Invitrogen Corporation (Carlsbad/Calif., USA) PV4753
- Sequence (P42345 1360-2549 limits assumed): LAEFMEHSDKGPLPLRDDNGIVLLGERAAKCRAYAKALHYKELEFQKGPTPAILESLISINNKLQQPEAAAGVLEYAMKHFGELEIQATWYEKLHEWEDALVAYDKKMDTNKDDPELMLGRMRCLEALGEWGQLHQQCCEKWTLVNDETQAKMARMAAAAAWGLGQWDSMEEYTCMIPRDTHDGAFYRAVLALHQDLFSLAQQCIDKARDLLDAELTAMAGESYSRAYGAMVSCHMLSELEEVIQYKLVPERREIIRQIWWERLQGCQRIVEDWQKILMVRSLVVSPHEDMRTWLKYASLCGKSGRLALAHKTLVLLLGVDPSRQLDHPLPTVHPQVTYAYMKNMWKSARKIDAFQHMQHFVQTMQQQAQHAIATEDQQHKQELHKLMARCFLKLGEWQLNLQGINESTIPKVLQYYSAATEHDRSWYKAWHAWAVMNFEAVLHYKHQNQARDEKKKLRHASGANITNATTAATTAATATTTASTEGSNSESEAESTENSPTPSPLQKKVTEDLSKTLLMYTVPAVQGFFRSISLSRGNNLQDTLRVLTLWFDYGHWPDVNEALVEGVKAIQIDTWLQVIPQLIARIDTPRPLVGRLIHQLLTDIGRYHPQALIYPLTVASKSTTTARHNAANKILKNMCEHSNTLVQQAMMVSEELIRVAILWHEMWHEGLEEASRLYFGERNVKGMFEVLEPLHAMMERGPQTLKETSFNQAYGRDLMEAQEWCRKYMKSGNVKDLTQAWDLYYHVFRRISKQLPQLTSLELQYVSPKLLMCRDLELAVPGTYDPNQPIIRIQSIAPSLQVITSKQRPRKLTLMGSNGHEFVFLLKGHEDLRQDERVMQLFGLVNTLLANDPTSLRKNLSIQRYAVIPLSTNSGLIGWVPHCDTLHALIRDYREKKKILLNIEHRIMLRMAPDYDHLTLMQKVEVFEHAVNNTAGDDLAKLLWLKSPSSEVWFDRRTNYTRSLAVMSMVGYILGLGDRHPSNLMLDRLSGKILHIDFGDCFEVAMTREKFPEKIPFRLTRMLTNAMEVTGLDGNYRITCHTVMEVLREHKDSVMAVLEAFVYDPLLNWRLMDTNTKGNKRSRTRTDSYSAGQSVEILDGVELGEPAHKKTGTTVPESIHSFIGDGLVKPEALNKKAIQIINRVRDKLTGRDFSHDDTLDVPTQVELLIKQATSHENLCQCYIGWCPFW
- procedure.text: Biochemical assay for m-TOR by TR-FRET
- experimental.setup: read-out: EPK_mTOR/IC50

CCN(C)c1ccc(-n2c(=O)n(C)c3cnc4ccc(-c5ccc(NC)nc5)cc4c32)c(C)n1    10 nM
COCc1ncc(-c2ccc3ncc4c(c3c2)n(-c2cccnc2C)c(=O)n4C)cc1OC    77 nM
Cc1nc(F)ccc1-n1c(=O)n(C)c2cnc3ccc(-c4cnc(N)c(CO)c4)cc3c21    80 nM
CNc1ncc(-c2ccc3ncc4c(c3c2)n(-c2ccc(NC(=O)COC)nc2C)c(=O)n4C)cn1    59 nM
COCCN(C)c1ccc(-n2c(=O)n(C)c3cnc4ccc(-c5cnc(N(C)C)nc5)cc4c32)c(C)n1    71 nM

Please state IC50 for every compound in the list that follows.
1. CNc1ncc(-c2ccc3ncc4c(c3c2)n(-c2ccc(N3CCC(O)C3)nc2C)c(=O)n4C)cn1 (stereo not drawn)
2. COc1cc(-c2ccc3ncc4c(c3c2)n(-c2ccc(N3CCCC3)nc2C)c(=O)n4C)cnc1CO
3. COCc1ncc(-c2ccc3ncc4c(c3c2)n(-c2ccc(F)nc2C)c(=O)n4C)cc1OC
4. Cc1nc(F)ccc1-n1c(=O)n(C)c2cnc3ccc(-c4cncc(N5CCC5)c4)cc3c21
5. CNc1ncc(-c2ccc3ncc4c(c3c2)n(-c2ccc(F)nc2C)c(=O)n4C)cc1F
6. CNc1ncc(-c2ccc3ncc4c(c3c2)n(-c2ccc(C(F)(F)F)nc2C)c(=O)n4C)cc1COC
7. CNc1ccc(-c2ccc3ncc4c(c3c2)n(-c2ccc(OCCOC)nc2C)c(=O)n4C)cn1

Result:
6 nM
655 nM
447 nM
59 nM
66 nM
70 nM
14 nM

List reported IC50 for each of these compounds:
1. CCNc1cc(-c2ccc3ncc4c(c3c2)n(-c2cnc(F)cc2C)c(=O)n4C)cnc1C
2. CCOc1cc(-c2ccc3ncc4c(c3c2)n(-c2cccnc2C)c(=O)n4C)cnc1C
3. CCOc1ccc(-c2ccc3ncc4c(c3c2)n(-c2cncc(C)c2)c(=O)n4C)cn1
4. CCNc1cc(-c2ccc3ncc4c(c3c2)n(-c2ccc(F)nc2C)c(=O)n4C)cnc1CO

Result:
53 nM
80 nM
484 nM
< 3 nM

Provide the reported IC50 of each entry below, same order.
1. Cc1nc(N2CC(F)(F)C2)ccc1-n1c(=O)n(C)c2cnc3ccc(-c4cncc(C(C)(C)O)c4)cc3c21
2. COCC(=O)Nc1ccc(-n2c(=O)n(C)c3cnc4ccc(-c5cncc(OC(C)C)c5)cc4c32)c(C)n1
3. Cc1nc(N2CCCC2)ccc1-n1c(=O)n(C)c2cnc3ccc(-c4cncc(C(C)(C)O)c4)cc3c21
4. CCNc1cc(-c2ccc3ncc4c(c3c2)n(-c2ccc(OC)nc2Cl)c(=O)n4C)cnc1C

Result:
48 nM
900 nM
12 nM
13 nM

Parameter requested: IC50. Apply to each item below.
1. COCc1ncc(-c2ccc3ncc4c(c3c2)n(-c2ccc(N3CCC3)nc2C)c(=O)n4C)cc1OC
2. CNC(=O)c1cc(-c2ccc3ncc4c(c3c2)n(-c2ccc(F)nc2C)c(=O)n4C)cnc1N
3. COCCN(C)c1ccc(-n2c(=O)n(C)c3cnc4ccc(-c5cnc6c(ccn6C)c5)cc4c32)c(C)n1
4. CNc1ncc(-c2ccc3ncc4c(c3c2)n(-c2ccc(N(C)CCO)nc2C)c(=O)n4C)cn1
5. COc1cc(-c2ccc3ncc4c(c3c2)n(-c2ccc(N3CC(F)(F)C3)nc2C)c(=O)n4C)cnc1CO

Result:
1: 137 nM; 2: 251 nM; 3: 75 nM; 4: 3 nM; 5: 449 nM

Could I get IC50 for every one of these entries?
1. COc1cc(-c2ccc3ncc4c(c3c2)n(-c2ccc(N3CC[C@H](O)C3)nc2C)c(=O)n4C)cnc1CO
2. CCOc1ccc(-c2ccc3ncc4c(c3c2)n(-c2ccc(NC(=O)COC)nc2C)c(=O)n4C)cn1
3. Cc1cc(F)ncc1-n1c(=O)n(C)c2cnc3ccc(-c4cnc(N)c(C(F)(F)F)c4)cc3c21
4. CCNc1cc(-c2ccc3ncc4c(c3c2)n(-c2ccc(N3CC(O)C3)nc2C)c(=O)n4C)cnc1CO
5. CNc1ncc(-c2ccc3ncc4c(c3c2)n(-c2ccc(N3CC(F)(F)C3)nc2C)c(=O)n4C)cn1

Result:
["50 nM", "154 nM", "110 nM", "5 nM", "21 nM"]
